Sourced from patent US7829524B2

system: E. coli TOP10; type: cell-based; conditions: Table 6; 0.1% arabinose; end point OD450, 14 hours
Can you tell me Growth inhibition using 0.1% arabinose (%) for the items I'm about to list?
Kindly answer with a numeric value in %, unit omitted.

// recorded Growth inhibition using 0.1% arabinose (%) for GLFRRLRKKIGKKFKKIAR (Synthetic antimicrobial peptide) [SEQ ID NO: 69] : 99

So, GLLRRLRKKIGRKFKKIAR (Synthetic antimicrobial peptide) [SEQ ID NO: 68] ? Its Growth inhibition using 0.1% arabinose (%) was 100

Form field Growth inhibition using 0.1% arabinose (%), entry GLLKRLGRKIGKKFKKIAR (Synthetic antimicrobial peptide) [SEQ ID NO: 61] : 98

The value of Growth inhibition using 0.1% arabinose (%) measured for the sequence GLLRRFRKKIGKKLKKITR (Synthetic antimicrobial peptide) [SEQ ID NO: 67] turned out to be 100

GLFRRLKRKIGKKLKKIAR (Synthetic antimicrobial peptide) [SEQ ID NO: 65] has a reported Growth inhibition using 0.1% arabinose (%) of 99

So, GLLRRLRKKIGKKLKKITR (Synthetic antimicrobial peptide) [SEQ ID NO: 63] ? Its Growth inhibition using 0.1% arabinose (%) was 99

The reported Growth inhibition using 0.1% arabinose (%) of the sequence GLFRRLRKKIGKKLKKIAR (Synthetic antimicrobial peptide) [SEQ ID NO: 64] was 99

Looking up GLFRRLKRKIGRKFKKIAR (Synthetic antimicrobial peptide) [SEQ ID NO: 60] , I see its Growth inhibition using 0.1% arabinose (%) listed as 99

* * *

test system: E. coli TOP10; assay type: cell-based; conditions: TOP10, 14 h
Where no end group is shown, it is not given here.
For each record, write down the corresponding Growth inhibition using 0.01% arabinose (%).

Quick note, Growth inhibition using 0.01% arabinose (%) for GLLRRLWRKIGRKLKKYGQKIKALRKLVP [SEQ ID NO: 13] landed at 96%

Growth inhibition using 0.01% arabinose (%) measured on GLLRRFRKKIGKKLKKIAR [SEQ ID NO: 62, GLLRRFRKKIGKKLKKIAR] = 94%

Growth inhibition using 0.01% arabinose (%) recorded for this sequence, GLLRRLRKKIGKKLKKIAR [SEQ ID NO: 59, GLLRRLRKKIGKKLKKIAR] , is 93%

For record GLLKRLGRKIGKKLKKIAR [SEQ ID NO: 66, GLLKRLGRKIGKKLKKIAR] the listed Growth inhibition using 0.01% arabinose (%) is 92%

* * *

Can you tell me MEC for the items I'm about to list?
test system: Escherichia coli Top10; assay: Radial Diffusion Assay using minimal conditions (MEC); assay type: cell-based; details: Table 8
Where no end group is shown, it is not given here.
Answer in µg/mL, number only, no unit symbol.

Short answer on Escherichia coli Top10 for GLLRRFWKKIGKKLKKFGQKIKPLPKLVP [SEQ ID NO: 41] , MEC: 16.6

MEC value, target or system Escherichia coli Top10, for GLLRRLRKKIGKKLKKIAR [SEQ ID NO: 59, GLLRRLRKKIGKKLKKIAR] : 18.3

Tested system Escherichia coli Top10; MEC recorded for GLLRRLRKKIGKKLKKIGQKIKPIRILVP [SEQ ID NO: 3] was 8.5

Record GRIKRVGEKIGKKLKKIGQVIKHLRILVP (Synthetic antimicrobial peptide) [SEQ ID NO: 38] ; system Escherichia coli Top10; MEC = 8.5

Item GLLKRLGRKIGKKLKKIAR [SEQ ID NO: 66, GLLKRLGRKIGKKLKKIAR] ; assay system Escherichia coli Top10; MEC reported as 13.5

Form field MEC for item GLLRRFRKKIGKKLKKIAR [SEQ ID NO: 62, GLLRRFRKKIGKKLKKIAR] on Escherichia coli Top10: 28.0

Escherichia coli Top10 data for GLLRRLWRKIGRKLKKYGQKIKALRKLVP [SEQ ID NO: 13] ; its MEC: 27.0
